Listed here are binders together with their documented glycan array binding signal (z-score).
systemTested: Neu5Ac(a2-8)Neu5Ac(a2-3)[GalNAc(b1-4)]Gal(b1-4)Glc
testProtocol: glycan array binding signal (z-score within array); higher = stronger binding
studyConditions: glycan notation: IUPAC condensed, linker removed
Many of the other results were omitted from the sample, so the strongest signals are more common in it than they were.
Enter the number alone.

Below, 3 binders whose answers are already recorded.
>>> result("PhypaEULS3 (Physcomitrella patens) (protein) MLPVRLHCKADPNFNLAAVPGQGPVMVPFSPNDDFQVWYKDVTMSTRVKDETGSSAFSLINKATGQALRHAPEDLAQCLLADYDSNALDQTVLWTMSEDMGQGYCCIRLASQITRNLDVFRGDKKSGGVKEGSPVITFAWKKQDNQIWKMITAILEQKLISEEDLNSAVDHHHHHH")
-0.005
>>> result("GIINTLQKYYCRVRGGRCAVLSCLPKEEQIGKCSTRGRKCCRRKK [Beta-Defensin 3 (Homo sapiens), P81534]")
-0.591
>>> result("MPA (Maclura pomifera), P18674 (protein) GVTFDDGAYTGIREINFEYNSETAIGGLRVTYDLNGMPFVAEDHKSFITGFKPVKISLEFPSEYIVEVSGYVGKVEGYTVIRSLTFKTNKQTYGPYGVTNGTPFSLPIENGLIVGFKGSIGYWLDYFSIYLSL")
-0.273

Attention now turns to another entry.
Short answer for SJA (Sophora japonica) (protein) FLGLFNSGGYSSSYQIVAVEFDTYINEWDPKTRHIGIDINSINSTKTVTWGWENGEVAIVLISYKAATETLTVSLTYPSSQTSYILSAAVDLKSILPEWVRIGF : glycan array binding signal (z-score) was -0.232

Hey, just so you know, these numbers are from the supplement of paper PMC8728848.
